molecular target: tankyrase 1 (TNKS 1) (Homo sapiens); construct: 1,024-1,327aa; made in house; host or cells: cell-free protein synthesis system; test: Tankyrase inhibitory activity test (ELISA, self-polyADP ribosylation), tankyrase 1; format: biochemical
Sequence (O95271 1024-1327): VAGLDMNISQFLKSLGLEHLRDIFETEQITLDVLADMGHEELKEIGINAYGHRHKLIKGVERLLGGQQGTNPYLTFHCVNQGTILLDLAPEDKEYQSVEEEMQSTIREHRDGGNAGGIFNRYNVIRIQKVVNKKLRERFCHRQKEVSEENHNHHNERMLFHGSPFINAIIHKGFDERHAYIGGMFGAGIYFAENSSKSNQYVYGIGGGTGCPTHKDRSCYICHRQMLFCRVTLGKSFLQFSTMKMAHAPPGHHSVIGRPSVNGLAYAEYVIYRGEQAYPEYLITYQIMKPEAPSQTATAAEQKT
endpoint-label: IC50

# compound CN1CCCc2c1nc(N1CCC3(CC1)C(=O)N(C)c1cc(OCP(=O)(O)O)cc(F)c13)[nH]c2=O ; its IC50 = 0.02 to 0.2 µM

* * *

Could you please report measured pIC50 for the items listed next?
target: tankyrase 1 (TNKS 1) (Homo sapiens); construct: 1,024-1,327aa; made in house; host or cells: cell-free protein synthesis system; experiment: Tankyrase inhibitory activity test (ELISA, self-polyADP ribosylation), tankyrase 1; format: biochemical; details: ELISA, self-polyADP ribosylation; class symbols; read-out: TNKS1 (inhibitory activity against tankyrase 1, IC50 value)
pIC50: −log10 of the molar value.

# batch size: 5; output pIC50 per entry
1. COC1CCN(c2cc(F)c3c(c2)N(C)C(=O)C32CCN(c3nc4c(c(=O)[nH]3)CCCN4C)CC2)CC1
2. O=C1N(CC(F)(F)F)c2cccc(F)c2C12CCN(c1nc3c(c(=O)[nH]1)CCCN3)CC2
3. CN1CCCc2c1nc(N1CCC3(CC1)C(=O)N(CC(F)(F)F)c1cc(OCCO)cc(F)c13)[nH]c2=O
4. COCCN1C(=O)C2(CCN(c3nc4c(c(=O)[nH]3)CCCN4C)CC2)c2c(F)cc(OCC(=O)O)cc21
5. CN1CCCc2c1nc(N1CCC3(CC1)OC(=O)c1cc(-c4cnn(C)c4)cc(F)c13)[nH]c2=O

RESULT:
1. 6.70 to 7.70
2. > 7.70
3. > 7.70
4. > 7.70
5. > 7.70

# batch size: 5; output pIC50 per entry
1. CN1CCC(COc2ccc(F)c3c2N(C)C(=O)C32CCN(c3nc4c(c(=O)[nH]3)CCCN4C)CC2)CC1
2. CNS(=O)(=O)COc1cc(F)c2c(c1)N(C)C(=O)C21CCN(c2nc3c(c(=O)[nH]2)CCCN3C)CC1
3. COCCN1C(=O)C2(CCN(c3nc4c(c(=O)[nH]3)CCCN4C)CC2)c2c(F)cc(OCCO)cc21
4. CN1CCCc2c1nc(N1CCC3(CC1)C(=O)N(C)c1cc(N4CC(=O)N(Cc5ccccc5)C(=O)C4)cc(F)c13)[nH]c2=O
5. CN1C(=O)C2(CCN(c3nc4c(c(=O)[nH]3)CCCN4)CC2)c2c(F)ccc(OCCO)c21

RESULT:
["6.70 to 7.70", "> 7.70", "> 7.70", "6.70 to 7.70", "> 7.70"]
